Read-out: Intercellular Adhesion Molecule 1 (ICAM1), ICAM1 (gene 3383)
Assay: BSK_KF3CT_ICAM1: BioMAP Diversity Plus: KF3CT Assay for Intercellular Adhesion Molecule 1 (ICAM1) Biomarker Activity (AID 2283067)
Settings: primary human keratinocytes with fibroblasts; actives raise or lower the signal
Active and inactive are the calls of the source. The calls were made as follows: active = hit-call score of the fitted dose curve at least 0.9, where 1 is the maximum; inactive = score below 0.9.
Outcome codes: true = active, false = inactive

CCCCC(CC)CO (configuration not stated); false
CCCCC(CC)COP(=O)(OCC(CC)CCCC)OCC(CC)CCCC (configuration not stated); false
CCCCOC(=O)CCCCC(=O)OCCCC; false
CC(C)NCC(O)c1ccc(O)c(O)c1 (configuration not stated); false
C/C=C/c1ccc(OC)cc1; false
CC(=O)OC1CC(C)OC(C)O1 (configuration not stated); false
NC(=Nc1ccccc1)Nc1ccccc1; false
CN(C)CCCN1c2ccccc2Sc2ccc(Cl)cc21; true
O=C1c2c(O)cccc2Cc2cccc(O)c21; true
O=Cc1ccccc1C=O; false
COC(=O)[C@H]1[C@H]2C[C@@H]3c4[nH]c5cc(OC)ccc5c4CCN3C[C@H]2C[C@@H](OC(=O)c2cc(OC)c(OC)c(OC)c2)[C@@H]1OC; false
O=C(N[C@@H](c1ccccc1)[C@@H]1CCCCN1)c1cccc(C(F)(F)F)c1Cl; true
C#CC(O)C(CC)CCCC (configuration not stated); false
CCCCCCCCCCCCCCCCO; false
CCCCCCCC(=O)OC; false
CC(C)(O)c1ccc(CNC(=O)c2cccnc2Oc2ccc(F)cc2)cc1; false
CN(C)C(=O)NC1(c2ccccc2)CCN(CCC[C@]2(c3ccc(Cl)c(Cl)c3)CCCN(C(=O)c3ccccc3)C2)CC1; false
Cc1cc(SC2=C(O)C[C@@](CCc3ccc(N)cc3)(C(C)C)OC2=O)c(C(C)(C)C)cc1CO; false
O=C1CCCCC1; false
CC(=O)[C@@]1(O)CC[C@H]2[C@@H]3CCC4=CC(=O)CC[C@]4(C)[C@H]3CC[C@@]21C; false
CCCCCCCCCCCCCCOS(=O)(=O)O; true
CCOCCOCCO; false
O=C(Oc1ccccc1)c1cccc(C(=O)Oc2ccccc2)c1; false
O=C(NS(=O)(=O)/C=C/c1cccs1)c1ccc(F)cc1Br; false
N[C@@H](Cc1c[nH]c2ccccc12)C(=O)O; false
CCCCc1nc2cccnc2n1Cc1ccc(-c2ccccc2-c2nnn[nH]2)cc1; false
CS(=O)(=O)c1ccc([C@@H](C[C@H]2CCC(=O)C2)C(=O)Nc2cnccn2)cc1Cl; false
COc1ccc(OC(F)(F)F)cc1CN[C@H]1CCCN[C@H]1c1ccccc1; false
COC(=O)CCCC(=O)OC; false
CCN(CC)CCOc1ccc(C(=C(Cl)c2ccccc2)c2ccccc2)cc1; true
O=NO; false
CC(COCC(C)OC(=O)c1ccccc1)OC(=O)c1ccccc1 (configuration not stated); false
Cc1c(C)c2c(c(C)c1O)CCC(C)(COc1ccc(CC3SC(=O)NC3=O)cc1)O2 (configuration not stated); true
CCCCCCCCCC[N+](C)(C)[O-]; false
CCc1nc(N)nc(N)c1-c1ccc(Cl)cc1; false
Cc1occc(=O)c1O; false
CC(C)OC(=O)C(C)(C)Oc1ccc(C(=O)c2ccc(Cl)cc2)cc1; false
Cc1ccc(-c2cc(C(F)(F)F)nn2-c2ccc(S(N)(=O)=O)cc2)cc1; false
NCCOCCOCCN; false
CC(C)(C)c1ccccc1; false
CC(=O)CC(c1ccccc1)c1c(O)c2ccccc2oc1=O (configuration not stated); false
O=C1OC(c2ccc(O)cc2)(c2ccc(O)cc2)c2ccccc21; false
NC1CCCCC1; false
C/C=C/C=C/C(=O)O; false
COc1ccc(C(=O)Nc2nc3ccccc3c(NCc3ccccc3)c2C#N)cc1; false
CC(=O)OCC(COC(C)=O)OC(C)=O; false
CN(C)CCCN(C)CCCN(C)C; false
